# EXPERIMENTAL_TARGET: recombinant soluble homotrimeric HA, A/Vietnam/1203/04 H5N1 (Influenza A virus A/VietNam/1203/2004(H5N1))
# TEST_SUMMARY: microarray, transfection SN IgG, trimeric HA
# PROTOCOL_CONDITIONS: remark: other sources report otherwise
Please respond with reported Trimeric HA Binding: RLU for every item in the list.
Give bare numbers, in RLU.

// known answers, use as guide
TCN-523 (5248_A17) (antibody, V domains shown) VH: QVQLVQSGAEVKKPGSSVKVSCKASGGSFSNYAFSWVRQAPGQGLEWMGGTIPLLGTTNYAQKFQGRVTISADQFTSTAYMELGSLRSEDTAVYYCTRRKMTTAFDSWGQGTLVTVSS VL: QPVLTQPPSASASLGASVTLTCTLSSAYSNYKVDWYQQRPGKGPRFVMRVGTGGIVGSKGDGIPDRFSVLGSGLNRYLTIKNIQEEDESDYHCGADHGSGSNFVSPYVFGGGTKLTVL    27800
TCN-504 (3251_K17) (antibody, V domains shown) VH: QVQLQESGPGLVKPSETLSLTCAVSGVSISNIDFYWGWIRQPPGKGLEWIGNIYYTGITFYNPSLSSRVAISIDTSKNQFSLTLTSVTAADTAMYYCARHYGDSEAINDAFDIWGQGTMLTVSS VL: EIVMTQSPATLSVSPGERATLSCRASQSVGNSLAWYQQRPGQAPRLLIYGASTRATGIPPRFSGSGSGTEFTLTISSLQTEDFAVYYCQQYINWRPLSFGGGTKVEIK    21500

Q: Need Trimeric HA Binding: RLU, item TCN-552 (5249_I23) (antibody, V domains shown) VH: QVQVVQSGAEVKKPGSSVRVSCQASGGTFMNYAIIWVRRAPGQGLEWMGGIIPVFPTPNYAQMFQGRVTISTDESRSTSFLELTNLRYEDTAVYYCARRIYHGGNSGFDFWGQGTLVTVSS VL: EIVLTQSPATLSLSPGERATLSCRASQSVGNYLAWYQQKPGQAPRLLIYDSSNRAPGIPARFSGSGSGTDFTLTISSLAPEDFAVYYCQQRSKWPPMYSFGHGTKLEIK
Ans: 18500

Hello, the source for this data is patent US20150086555A1, in case you need it.
